experiment: qHTS Assay Multiplex Screening to Identify Dual Action Probes in a Cell Model of Huntington: Cytoprotection (Protease relase); settings: PC12 HttQ103 cells, Cytotox-Glo protease release, 40 h; series mostly up to 46.1 µM
Records with an inconclusive call do not appear. Activity calls are given as the source filed them. The call rests on the fitted dose curve; in most records, active means well fitted inhibition curve with a large enough effect; inconclusive means small, poorly fitted or top-dose-only effect, or effect the other way; inactive means flat fitted curve, though single readings scatter.
Possible outcomes: active, inactive

>>> df
                                    compound  qualitative_label
 0  CC(=O)OCC1=C(C(=O)O)N2C(=O)[C@@H](NC(=O)Cc3cccs3)[C@H]2SC1           inactive
 1  Cc1ccc(S(=O)(=O)CCc2nc3ccccc3n2CCC#N)cc1             active
 2            COc1ccc(C2=Nc3cc(C)ccc3OC2)cc1             active
 3  O=C(O)/C=C/C(O)c1ccc(Cl)cc1 (centres undefined)           inactive
 4  C=CS(=O)(=O)c1ccc(Oc2ccc(S(=O)(=O)C=C)cc2)cc1             active
 5    Cn1nnnc1Sc1ncnc2scc(-c3cccc(C#N)c3)c12             active
 6  CCC(=O)O[C@]1(C(=O)CCl)[C@@H](C)C[C@H]2[C@@H]3CCC4=CC(=O)C=C[C@]4(C)[C@@]3(F)[C@@H](O)C[C@@]21C           inactive
 7                C#CCN(C)CCCOc1ccc(Cl)cc1Cl           inactive
 8           CCC(=O)OCCCCCCOc1ccc(C(=O)O)cc1             active
 9  COc1cc2nc(N3CCN(C(=O)C4CCCO4)CC3)nc(N)c2cc1OC (centres undefined)             active
10  Cc1cc(NC(=O)CCS(=O)(=O)c2nc(-c3ccccc3)cc(C(F)(F)F)n2)no1           inactive
11           O=C(O)c1cc(=O)c2ccc(Cl)cc2[nH]1           inactive
12  O=C(c1ccccc1)c1ccc2n1CCC2C(=O)O (centres undefined)             active
13                          NCCCCCc1cnc[nH]1           inactive
14     C[C@@H]1CNCCN1S(=O)(=O)c1cccc2cnccc12           inactive
15  COc1cc(-c2nc(S(=O)(=O)c3ccc(C)cc3)c(N(C)C)o2)cc(OC)c1OC           inactive
16      Cc1ccc(-c2csc3ncnc(Sc4nnnn4C)c23)cc1             active
17                 O=C(Nc1cccnc1)Nc1ccccc1Cl             active
18       Cn1nnnc1Sc1ncnc2scc(-c3ccc[nH]3)c12             active
19    Cn1nnnc1Sc1ncnc2scc(-c3ccc(C#N)cc3)c12             active
20  Cn1nnnc1Sc1ncnc2scc(-c3ccccc3C(F)(F)F)c12             active
21      Cn1nnnc1Sc1ncnc2scc(-c3cccc(F)c3)c12             active
22          N#Cc1ccsc1NC(=O)CSc1ncnc2ccccc12           inactive
23  CS(=O)(=O)c1ccc([C@H](O)[C@H](CO)NC(=O)C(Cl)Cl)cc1           inactive
